- Test system: HOP-62
- Protocol description: NCI screen antiproliferative activity, lung HOP-62
- Format: cell-based, human
- Measurement setup: concentration corresponding to 50% growth inhibition; read-out: cytotoxicity GI50 lung HOP-62
# Lookup of reported GI50 keyed by entry

Observe how each entry below is paired with its result.
[[record]]
compound = "O=C1c2cc3c(cc2C2C1c1ccc([N+](=O)[O-])cc1C(=O)N2CCCCl)OCO3 (racemic) [Compound 13]"
experimental_value = "< 10 nM"

[[record]]
compound = "O=C1c2cc3c(cc2C2C1c1ccc([N+](=O)[O-])cc1C(=O)N2CCCBr)OCO3 (racemic) [Compound 12]"
experimental_value = "< 10 nM"


// next item, GI50 requested
Endpoint output: GI50 of [N-]=[N+]=NCCCn1c2c(c3ccc([N+](=O)[O-])cc3c1=O)C(=O)c1cc3c(cc1-2)OCO3 [Compound 16] . Value? < 10 nM
